// provenance: paper doi:10.1101/2024.08.19.608619

assay: Hepatic microsomal stability, MLM; assay type: in vitro ADME; details: In vitro mouse liver microsomal stability
Cut-off 50% on perc_remaining: below means rule met, at or above means rule not met.

molecule: CC(C)[C@H](Nc1ncnc2[nH]c(-c3cnn(C)c3C#N)cc12)c1ccc2c(c1)S(=O)(=O)CCC2 (single isomer, unassigned)
discrete label: rule met

Is 50% strictly greater than the molecule's reported perc_remaining? molecule: O=C(Nc1ccccc1)Nc1ccc(C(=O)NC2c3cccc(O)c3CC2C(=O)O)cc1 (stereo not shown)
rule not met

// same read-out, input: CC(C)[C@H](CO)Nc1ncnc2[nH]ccc12
rule not met

// same read-out, input: CC(C)[C@H](Nc1ncnc2[nH]c(-c3cnn(CC(N)=O)c3)cc12)c1ccc2c(n1)OCCO2
rule not met

// same read-out, input: CNC(=O)Cn1cc(-c2cc3c(N[C@H](c4ccc5c(c4)S(=O)(=O)CCC5)C(C)C)ncnc3[nH]2)cn1 (single isomer, unassigned)
rule met

// same read-out, input: CC(C)[C@H](Nc1ncnc2[nH]c(-c3cnn(CC(=O)N(C)C)c3)cc12)c1ccc2c(c1)OCCO2 (single isomer, unassigned) [ASAP-0013833]
rule not met

// same read-out, input: CC(C)(C)[C@H](Nc1ncnc2[nH]c(-c3cnn(CC(N)=O)c3)cc12)c1ccc2c(c1)OCCO2 (single isomer, unassigned) [ASAP-0012332]
rule not met
